Tested on: Colon Epithelium (CCD18co)
measurement-protocol: Alamar Blue Assay
Assay type: cell-based
condition: Homo sapiens, CCD-18Co
readout: IC50 (nM)
Please give a number only; it is taken to be in nM.

Quick one: IC50 for O=c1[nH]cc(F)c(=O)[nH]1 [5-Fluorouracil, 5-fluorouracil] ?
200

* * *

Tested on: Skin Fibroblast (DET551)
measurement-protocol: Alamar Blue Assay
Type: cell-based
readout: IC50 (nM)
Please give a number only; it is taken to be in nM.

Quick one: IC50 for O=c1[nH]cc(F)c(=O)[nH]1 [5-Fluorouracil, 5-fluorouracil] ?
1100

* * *

System: Breast (MDA 468)
measurement-protocol: Alamar Blue Assay
Assay type: cell-based
readout: IC50 (nM)
Please give a number only; it is taken to be in nM.

Quick one: IC50 for "O=c1[nH]cc(F)c(=O)[nH]1" ?
400

The values you see were collected from patent US6339151B1.
